Test system: lambsquarters (Chenopodium album)
Procedure Details: Test E greenhouse herbicide test, pre- and postemergence
Assay type: in vivo
Condition Notes: Preemergence, 31 g ai/ha; scale 0 to 100, 0 no effect, 100 complete control
Property Label: Plant response rating, Lambsquarters
Output spec: single numeric token, no unit.

**Query** I'd like to know its Plant response rating, Lambsquarters. The molecule in question is Cc1nn(C)c(=O)c(-c2ccc(Br)c3ccccc23)c1O [Compound 75]
**Result** 100

**Query** I'd like to know its Plant response rating, Lambsquarters. The molecule in question is CCCC(=O)Oc1c(C)nn(C)c(=O)c1-c1c(C)sc2ccc(C)cc12 [Compound 105]
**Result** 0

**Query** I'd like to know its Plant response rating, Lambsquarters. The molecule in question is Cc1ccc2sc(C)c(-c3c(OC(=O)OC(C)C)c(C)nn(C)c3=O)c2c1 [Compound 66]
**Result** 90

**Query** I'd like to know its Plant response rating, Lambsquarters. The molecule in question is Cn1nc(Br)c(O)c(-c2cccc3ccccc23)c1=O [Compound 20]
**Result** 70

**Query** I'd like to know its Plant response rating, Lambsquarters. The molecule in question is Cc1cc(C)c2ccccc2c1-c1c(O)c(C)nn(C)c1=O [Compound 21]
**Result** 100

**Query** I'd like to know its Plant response rating, Lambsquarters. The molecule in question is Cc1ccc2ccccc2c1-c1c(O)c(I)nn(C)c1=O [Compound 29]
**Result** 100

Each recorded value in this set is attributed to patent US10597388B2.
